biological target: Nuclear receptor ROR-gamma (Homo sapiens, UniProt P51449); experiment: Inverse agonist activity at RORgammat in CD3 and CD28-stimulated human whole blood assessed as suppression of IL17 preincubated for 1 hr followed by CD3 and CD28 stimulation measured after 20 hrs by AlphaLISA method; format: tissue-based
Sequence (P51449 whole entry): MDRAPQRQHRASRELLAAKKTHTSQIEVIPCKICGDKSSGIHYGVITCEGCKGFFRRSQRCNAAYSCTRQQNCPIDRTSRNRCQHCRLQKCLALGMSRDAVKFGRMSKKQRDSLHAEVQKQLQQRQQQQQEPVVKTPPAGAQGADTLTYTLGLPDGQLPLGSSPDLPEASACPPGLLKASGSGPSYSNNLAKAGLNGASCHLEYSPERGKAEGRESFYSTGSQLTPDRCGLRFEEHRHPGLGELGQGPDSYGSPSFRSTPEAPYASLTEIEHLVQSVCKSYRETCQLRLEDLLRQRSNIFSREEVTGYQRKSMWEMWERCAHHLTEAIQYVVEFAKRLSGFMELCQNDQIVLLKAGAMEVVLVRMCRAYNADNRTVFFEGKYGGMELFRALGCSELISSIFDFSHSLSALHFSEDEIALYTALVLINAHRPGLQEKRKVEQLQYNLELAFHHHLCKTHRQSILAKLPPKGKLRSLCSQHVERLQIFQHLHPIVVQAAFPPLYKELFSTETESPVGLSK
Reported EC50 values follow for various compounds
Reply with just the number (in nM).

Some solved cases for reference:
>>> obs_value("CS(=O)(=O)N[C@@H]1CC[C@@]2(S(=O)(=O)c3ccc(F)cc3)c3ccc(C(F)(C(F)(F)F)C(F)(F)F)cc3CC[C@@H]12")
157
>>> obs_value("[2H]C([2H])([2H])N1C(=O)C(O)CC1C(=O)N[C@@H]1CC[C@@]2(S(=O)(=O)c3ccc(F)cc3)c3ccc(C(F)(C(F)(F)F)C(F)(F)F)cc3CC[C@@H]12 (single isomer, unassigned)")
134
>>> obs_value("CN(C(=O)C(C)(C)O)[C@@H]1CC[C@@]2(S(=O)(=O)c3ccc(F)cc3)c3ccc(C(F)(C(F)(F)F)C(F)(F)F)cc3CC[C@@H]12")
2730

Shifting focus to the compound that follows.
Requested field: EC50. Item: "CC(C)(N)C(=O)N[C@@H]1CC[C@@]2(S(=O)(=O)c3ccc(F)cc3)c3ccc(C(F)(C(F)(F)F)C(F)(F)F)cc3CC[C@@H]12"
164

====

assay: Oral bioavailability in rat at 4 mg/kg; assay type: ADME, organism-based; conditions: in vivo
Result Type: bioavailability (%)
Just the number please, in %, no unit attached.

Please look up its bioavailability: "CC(C)(O)C(=O)N[C@@H]1CC[C@@]2(S(=O)(=O)c3ccc(F)cc3)c3ccc(C(F)(C(F)(F)F)C(F)(F)F)cc3CC[C@@H]12"
65

====

test: Clearance in dog at 1 mg/kg, iv; type: ADME, organism-based, Canis lupus familiaris; settings: in vivo
Result Type: clearance (L/h/kg)
// units = L/h/kg; emit number, no label

Any idea what clearance was measured for "CC(C)(O)C(=O)N[C@@H]1CC[C@@]2(S(=O)(=O)c3ccc(F)cc3)c3ccc(C(F)(C(F)(F)F)C(F)(F)F)cc3CC[C@@H]12" ?
0.048

====

assay: Half life in human liver microsomes; type: ADME, Microsome
Result Type: half-life (min)
Unit min implied. Number only.

>>> obs_value("[2H]C([2H])([2H])N1C(=O)C(F)CC1C(=O)N[C@@H]1CC[C@@]2(S(=O)(=O)c3ccc(F)cc3)c3ccc(C(F)(C(F)(F)F)C(F)(F)F)cc3CC[C@@H]12 (single isomer, unassigned)")
46

API: the following record is the query input.
Requested field: half-life. Item: "CC(C)(O)C(=O)N[C@@H]1CC[C@@]2(S(=O)(=O)c3ccc(F)cc3)c3ccc(C(F)(C(F)(F)F)C(F)(F)F)cc3CC[C@@H]12"
120

====

biological target: Nuclear receptor ROR-beta (Homo sapiens); assay: Inverse agonist activity at Gal4-fused RORbeta (unknown origin)
Sequence (Q92753 whole entry, the tested form may be a part): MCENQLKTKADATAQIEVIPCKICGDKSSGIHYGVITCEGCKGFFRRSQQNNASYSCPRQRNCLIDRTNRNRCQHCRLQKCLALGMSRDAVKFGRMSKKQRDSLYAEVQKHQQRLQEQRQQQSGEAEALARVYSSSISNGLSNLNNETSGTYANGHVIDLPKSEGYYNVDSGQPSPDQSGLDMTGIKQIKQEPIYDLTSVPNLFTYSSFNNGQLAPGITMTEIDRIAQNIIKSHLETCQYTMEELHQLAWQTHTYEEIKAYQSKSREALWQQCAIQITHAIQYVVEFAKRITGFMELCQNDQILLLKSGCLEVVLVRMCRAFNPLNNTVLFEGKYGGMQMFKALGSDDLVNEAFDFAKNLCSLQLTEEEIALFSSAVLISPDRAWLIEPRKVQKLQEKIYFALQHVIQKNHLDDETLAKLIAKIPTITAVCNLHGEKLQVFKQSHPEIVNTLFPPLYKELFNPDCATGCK
pEC50: −log10 of the molar value.
Result Type: pEC50

Fill in the blank: the reported pEC50 of "CC(C)(O)C(=O)N[C@@H]1CC[C@@]2(S(=O)(=O)c3ccc(F)cc3)c3ccc(C(F)(C(F)(F)F)C(F)(F)F)cc3CC[C@@H]12" is ____.
< 5.00

====

experiment: Clearance in cynomolgus monkey at 1 mg/kg, iv; assay type: ADME, organism-based, Macaca fascicularis; details: in vivo
Result Type: clearance (mL/min/kg)
Use mL/min/kg as the unit, but write only the number.

So what does the record say about clearance for "CC(C)(O)C(=O)N[C@@H]1CC[C@@]2(S(=O)(=O)c3ccc(F)cc3)c3ccc(C(F)(C(F)(F)F)C(F)(F)F)cc3CC[C@@H]12" ?
2.7
